- System tested: T1, HBVc18 peptide-MHC complex (HBVc18pMHC), biotinylated recombinant tripartite complex of HLA-A*0201, human … (human; hepatitis B virus)
- T1 construct: also called HLA-A*0201: HBc18; target peptide-MHC complex
- Test name: SPR (ProteOn), biotinylated HBVc18pMHC on NLC chip, ankyrin repeat protein injected, PBST
Assign labels as follows, please: Yes for Kd below 9 nM; No for Kd equal to or exceeding 9 nM.

Study these solved cases before continuing.
Binder	Assigned category
TCE DARPin® protein #23 (designed binder, not shown: small tags and cut ends) GSDLGQKLLTAAIVGQDDEVRILLAAGADVNAKDQSGLTPLHLAAAYGHLEIVEVLLKAGADVNAKDKHGRTPLHLAALEGHLEIVEVLLKAGADVNAQDQFGITPADLAAAVGHEDIAEVLQKAA	Yes
TCE DARPin® protein #25 (designed binder, not shown: small tags and cut ends) GSDLGSKLLYAAISGQDDEVRILLAAGADVNAKDESGQTPLHYAAFVGHLEIVEVLLKAGADVNAKDQWGHTPLHVAATFGHLEIVEVLLKAGADVNAQDTWGTTPADLAATFGHEDIAVVLQKAA	Yes
TCE DARPin® protein #20 (designed binder, not shown: small tags and cut ends) GSDLGFKLLEAALEGQDDEVRILLAAGADVNAKDESGQTPLHYAAFVGHLEIVEVLLKAGADVNAKDQWGHTPLHVAATFGHLEIVEVLLKAGADVNAQDTWGTTPADLAATFGHEDIAEVLQKAA	Yes
TCE DARPin® protein #22 (designed binder, not shown: small tags and cut ends) GSDLGKKLLSAAQSGQDDEVRILLGAGADVNAKDKWGHTPLHLAAVKGHLEIAEVLLKAGADVNAKDEWGSTPLHLAASQGHLEIVEVLLKAGADVNAKDKKGATPLHLAALVGHLEIVEVLLKAVADVNAQDKSGKTPADLAARAGHQDIAEVLQKAA	No
TCE DARPin® protein #16 (designed binder, not shown: small tags and cut ends) GSDLGHKLLFAASAGQDDEVRILLAAGADVNAKDESGQTPLHYAAFVGHLEIVEVLLKAGADVNAKDQWGHTPLHVAATFGHLEIVEVLLKAGADVNAQDTWGTTPADLAATFGHEDIAEVLQKAA	Yes

Dear reviewer, please state whether TCE DARPin® protein #26 (designed binder, not shown: small tags and cut ends) GSDLGKKLLQAARAGQLDEVHELLKAGADVNAKDQHGKTPMHLAAQIGHLEIVEVLLKAGADVNAKDHIGWTPLHLAASVGHLEIVEVLLKAGADVNAKDQEGWTPLHVAAQLGHLEIVEVLLKAGADVNAQDKSGKTPADLAARAGHQDSAEVLQKAA has Kd strictly beneath 9 nM.
No
